Tested on: Glutamate receptor ionotropic, NMDA 3A (GRIN3A) ligand-binding domain
testName: binders of NR3A ligand-binding domain, primary screen, biophysical, differential scanning fluorimetry, uHTS (AID 1259313)
conditionSet: NR3A LBD differential scanning fluorimetry, at 25 µM, 0% = protein alone, 100% = glycine-bound protein
The campaign covered roughly 340,000 compounds. About 8,500 (2.5%) were called active.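 How the source made its calls: active means melting temperature shift of at least 10% of the positive control shift, at one fixed dose; inactive means the rest.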 What follows is part of a selection rich in actives, with near analogues and random picks from the rest.
Hello, when you answer, please use one of the following outcomes: 1 (yes) for active, 0 (no) for inactive

What classification did COc1ccc(CCNC(=O)COC(=O)Cc2cccc(F)c2)cc1 end up with in this test? 1 (yes)

Entry COc1ccc(NC(=O)C2CCN(S(=O)(=O)c3ccc4[nH]c(=O)oc4c3)CC2)c(OC)c1 please 0 (no)

Entry COc1cc(NC(=O)CCNC(=O)Cn2ccc3ccccc3c2=O)cc(OC)c1OC please 0 (no)

Entry CCOc1ccc(NC(=O)CN(C)C(=O)COc2cccc(CC)c2)cc1OCC please 0 (no)

Entry c1ccc(-c2c[nH]c(-c3ccccc3)c2)cc1 please 1 (yes)

Entry CCCCN(CC)C(=S)Nc1ccc2nc3n(c(=O)c2c1)CCCCC3 please 1 (yes)

These data points were gathered from PubChem BioAssay AID1259313.
